Task for the reader: assign each of the following molecules its reported inhibition at 1 µM.
# test system: SERT (Homo sapiens, UniProt P31645)
# Construct: purchased Perkin Elmer
# Sequence (P31645 whole entry): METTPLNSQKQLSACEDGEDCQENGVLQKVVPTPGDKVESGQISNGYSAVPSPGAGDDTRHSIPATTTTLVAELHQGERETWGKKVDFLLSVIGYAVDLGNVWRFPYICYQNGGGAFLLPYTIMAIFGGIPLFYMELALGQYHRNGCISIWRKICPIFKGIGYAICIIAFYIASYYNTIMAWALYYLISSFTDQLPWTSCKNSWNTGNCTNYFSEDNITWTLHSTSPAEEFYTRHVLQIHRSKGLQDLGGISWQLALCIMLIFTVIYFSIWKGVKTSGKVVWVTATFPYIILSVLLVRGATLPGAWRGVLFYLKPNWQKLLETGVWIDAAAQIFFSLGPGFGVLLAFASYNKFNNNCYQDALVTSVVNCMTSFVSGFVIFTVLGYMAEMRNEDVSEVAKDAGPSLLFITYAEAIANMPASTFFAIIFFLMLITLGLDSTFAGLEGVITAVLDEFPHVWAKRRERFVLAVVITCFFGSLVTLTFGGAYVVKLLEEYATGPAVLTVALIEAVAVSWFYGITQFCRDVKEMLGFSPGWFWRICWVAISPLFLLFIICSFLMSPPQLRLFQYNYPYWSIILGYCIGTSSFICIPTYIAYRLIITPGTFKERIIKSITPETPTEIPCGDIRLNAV
# assay method text: Serotonin Binding Assay ([3H]-Citalopram Binding Assay)
# condition description: 1 h; 1 μM test compound; NE = Not Effective; read-out: SERT % Citalopram displacement 1 μM
The reply should be a number in %, with the unit left off.

What does the data say about its inhibition at 1 µM? Entry: C=CCON=C(c1ccc(Cl)c(Cl)c1)C1C2CNCC21 (centres unmarked)
94.4

Which measured inhibition at 1 µM value corresponds to Clc1ccc(C(=NOc2ccccc2)C2C3CNCC32)cc1Cl (centres unmarked) ?
61.4

Please report the recorded inhibition at 1 µM for Fc1ccc(CON=CC2C3CNCC23c2ccc(Cl)c(Cl)c2)cc1 (centres unmarked) .
88.8

# inhibition at 1 µM lookup, item Clc1ccc(C(=NOCC2CC2)C2C3CNCC32)cc1Cl (centres unmarked)
95.5

Can you share its inhibition at 1 µM? I mean this molecule: Clc1ccc(C(=NOCc2ccccc2)C2C3CNCC32)cc1Cl (centres unmarked)
85.8
